experiment: Inhibition of quorum sensing system in Pseudomonas aeruginosa PAO1 assessed as inhibition of rhamnolipid production at 102.4 ug/ml incubated for 24 hrs by absorbance based assay; settings: dose 102.4 µg/ml
Activity calls are given as the source filed them. The rule behind the calls is not given here.
Experimental Readout: inhibition

Examples from the recorded data:
[
  {
    "Compound String": "C=C1C(c2ccc(F)cc2)=C(CNC(=O)c2ccc(C)cc2)C(=O)N1c1ccccc1C",
    "Reported": "45.9%"
  },
  {
    "Compound String": "C=C1OC(=O)C(CNC(=O)CCCCCCCCCC)=C1c1ccc(F)cc1",
    "Reported": "Active"
  },
  {
    "Compound String": "C=C1OC(=O)C(CNC(=O)c2cccc(OC)c2)=C1c1ccc(F)cc1",
    "Reported": "Active"
  },
  {
    "Compound String": "C=C1OC(=O)C(CNC(=O)CCCCCCCCCCC)=C1c1ccc(F)cc1",
    "Reported": "Active"
  },
  {
    "Compound String": "C=C1OC(=O)C(CNC(=O)c2ccc(C)cc2)=C1c1cccc(Cl)c1",
    "Reported": "Active"
  }
]

Give inhibition for all compounds that follow.
1. C=C1OC(=O)C(CNC(=O)c2ccc(F)cc2)=C1c1ccc(F)cc1
2. C=C1OC(=O)C(CNC(=O)c2ccc(Cl)cc2)=C1c1ccc(F)cc1
3. C=C1C(c2ccc(F)cc2)=C(CNC(=O)c2ccc(C)cc2)C(=O)N1c1cccc(C)c1
4. C=C1OC(=O)C(CNC(=O)c2ccc(OC)cc2)=C1c1ccc(F)cc1
5. C=C1OC(=O)C(CNC(=O)c2ccc(Br)cc2)=C1c1ccc(F)cc1
6. C=C1OC(=O)C(CNC(=O)c2ccc(C)cc2)=C1c1ccc(OC)cc1

1: Active; 2: 47.3%; 3: 57.1%; 4: Active; 5: 48.5%; 6: Active

Give inhibition for all compounds that follow.
1. O=C1C=C(Br)/C(=C/Br)O1
2. C=C1OC(=O)C(CNC(=O)c2ccc(C)cc2)=C1c1ccc(F)cc1
3. C=C1C(c2ccc(F)cc2)=C(CNC(=O)c2ccc(C)cc2)C(=O)N1c1ccc(C)cc1

1: 44.9%; 2: Active; 3: 49.7%

====

test system: Bacillus pumilus; assay: Antibacterial activity against penicillin-susceptible Bacillus pumilus CMCC63202 assessed as inhibition of bacterial growth incubated for 20 hrs by CLSI protocol based microdilution method; type: functional
Answer each item with its documented MIC.
Answers are plain numbers, in µg/mL.

Examples from the recorded data:
[
  {
    "Compound": "C=C1C(c2ccc(F)cc2)=C(CNC(=O)c2ccc(C)cc2)C(=O)N1C1CCCC1",
    "MIC [µg/mL]": 512
  },
  {
    "Compound": "C=C1C(c2ccc(F)cc2)=C(CNC(=O)c2ccc(C)cc2)C(=O)N1c1ccccc1C",
    "MIC [µg/mL]": 512
  },
  {
    "Compound": "C=C1C(c2ccc(F)cc2)=C(CNC(=O)c2ccc(C)cc2)C(=O)N1c1cccc(C)c1",
    "MIC [µg/mL]": 512
  }
]

// next item, MIC requested
Give the measured MIC of CC[C@H]1OC(=O)[C@H](C)[C@@H](O[C@H]2C[C@@](C)(OC)[C@@H](O)[C@H](C)O2)[C@H](C)[C@@H](O[C@@H]2O[C@H](C)C[C@H](N(C)C)[C@H]2O)[C@](C)(O)C[C@@H](C)CN(C)[C@H](C)[C@@H](O)[C@]1(C)O [AZITHROMYCIN] .
0.25

====

Answer each item with its documented MIC.
tested on: Bacillus pumilus; assay: Antibacterial activity against penicillin-susceptible Bacillus pumilus CMCC63202 assessed as inhibition of bacterial growth incubated for 20 hrs by CLSI protocol based microdilution method; assay type: functional

Give MIC for all compounds that follow.
1. CC[C@H]1OC(=O)[C@H](C)[C@@H](O[C@H]2C[C@@](C)(OC)[C@@H](O)[C@H](C)O2)[C@H](C)[C@@H](O[C@@H]2O[C@H](C)C[C@H](N(C)C)[C@H]2O)[C@](C)(OC)C[C@@H](C)C(=O)[C@H](C)[C@@H](O)[C@]1(C)O [CLARITHROMYCIN]
2. C=C1OC(=O)C(CNC(=O)c2ccc(C)cc2)=C1c1cccc(F)c1
3. C=C1OC(=O)C(CNC(=O)c2cccc(OC)c2)=C1c1ccc(F)cc1

1. 0.25 µg/mL
2. > 512 µg/mL
3. > 512 µg/mL

Give MIC for all compounds that follow.
1. C=C1OC(=O)C(CNC(=O)c2ccccc2F)=C1c1ccc(F)cc1
2. C=C1OC(=O)C(CNC(=O)c2ccccc2C)=C1c1ccc(F)cc1
3. C=C1OC(=O)C(CNC(=O)CCCCCCCCCCC)=C1c1ccc(F)cc1

> 512 µg/mL
32 µg/mL
> 512 µg/mL

Give MIC for all compounds that follow.
1. C=C1OC(=O)C(CNC(=O)c2cccc(Br)c2)=C1c1ccc(F)cc1
2. C=C1OC(=O)C(CNC(=O)c2ccc(C)cc2)=C1c1ccc(F)cc1
3. C=C1OC(=O)C(CNC(=O)c2ccc(C)cc2)=C1c1ccccc1
4. C=C1OC(=O)C(CNC(=O)c2ccc(C)cc2)=C1c1ccc(Cl)cc1

1: > 512 µg/mL; 2: > 512 µg/mL; 3: > 512 µg/mL; 4: > 512 µg/mL

====

experiment: Inhibition of quorum sensing system in Pseudomonas aeruginosa PAO1 assessed as inhibition of protease activity at 102.4 ug/ml incubated for 24 hrs by absorbance based assay; details: dose 102.4 µg/ml
Answer each item with its documented inhibition.

[
  {
    "Compound String": "C=C1OC(=O)C(CNC(=O)c2cccc(OC)c2)=C1c1ccc(F)cc1",
    "inhibition": "8.6%"
  }
]

Give the measured inhibition of C=C1OC(=O)C(CNC(=O)c2ccc(Br)cc2)=C1c1ccc(F)cc1 .
8.6%

====

experiment: Inhibition of quorum sensing system in Pseudomonas aeruginosa PAO1 assessed as inhibition of pyocyanin production at 102.4 ug/ml incubated for 18 hrs by absorbance based assay; conditions: dose 102.4 µg/ml
Calls of active or inactive are those of the source. The rule behind the calls is not given here.
Experimental Readout: inhibition

Examples from the recorded data:
[
  {
    "Compound String": "C=C1OC(=O)C(CNC(=O)CCCCCCCCCC)=C1c1ccc(F)cc1",
    "Reported": "44.7%"
  },
  {
    "Compound String": "C=C1OC(=O)C(CNC(=O)c2cccc(OC)c2)=C1c1ccc(F)cc1",
    "Reported": "Active"
  },
  {
    "Compound String": "C=C1OC(=O)C(CNC(=O)c2ccc(Cl)cc2)=C1c1ccc(F)cc1",
    "Reported": "Active"
  },
  {
    "Compound String": "C=C1OC(=O)C(CNC(=O)c2ccc(C)cc2)=C1c1ccc(OC)cc1",
    "Reported": "Active"
  }
]

Give the measured inhibition of C=C1OC(=O)C(CNC(=O)c2ccc(C)cc2)=C1c1ccc(F)cc1 .
55.5%

====

assay: Inhibition of quorum sensing system in Pseudomonas aeruginosa PAO1 assessed as inhibition of pyocyanin production at 102.4 ug/ml incubated for 18 hrs by absorbance based assay; details: dose 102.4 µg/ml
Activity calls are given as the source filed them. The calls are words filed in the database; no cut-off is given here.
Experimental Readout: inhibition

Examples from the recorded data:
[
  {
    "Compound String": "C=C1C(c2ccc(F)cc2)=C(CNC(=O)c2ccc(C)cc2)C(=O)N1c1ccccc1C",
    "Reported": "38.3%"
  },
  {
    "Compound String": "C=C1OC(=O)C(CNC(=O)Cc2ccccc2)=C1c1ccc(F)cc1",
    "Reported": "inactive"
  },
  {
    "Compound String": "C=C1OC(=O)C(CNC(=O)c2ccc(C)cc2)=C1c1cccc(Cl)c1",
    "Reported": "Active"
  },
  {
    "Compound String": "C=C1OC(=O)C(CNC(=O)c2ccc(Br)cc2)=C1c1ccc(F)cc1",
    "Reported": "34.7%"
  }
]

Give inhibition for all compounds that follow.
1. C=C1OC(=O)C(CNC(=O)CCc2ccccc2)=C1c1ccc(F)cc1
2. C=C1OC(=O)C(CNC(=O)CCCCCCCCCCC)=C1c1ccc(F)cc1

1: inactive; 2: 36.5%

Give inhibition for all compounds that follow.
1. C=C1C(c2ccc(F)cc2)=C(CNC(=O)c2ccc(C)cc2)C(=O)N1c1ccc(C)cc1
2. C=C1OC(=O)C(CNC(=O)c2ccc(OC)cc2)=C1c1ccc(F)cc1
3. C=C1C(c2ccc(F)cc2)=C(CNC(=O)c2ccc(C)cc2)C(=O)N1c1cccc(C)c1
4. C=C1OC(=O)C(CNC(=O)c2ccc(F)cc2)=C1c1ccc(F)cc1

1: Active; 2: 44%; 3: 35.2%; 4: 31.4%

====

Answer each item with its documented MIC.
test system: Pseudomonas aeruginosa; test: Antibacterial activity against penicillin-susceptible Pseudomonas aeruginosa ATCC27853 assessed as inhibition of bacterial growth incubated for 20 hrs by CLSI protocol based microdilution method; format: functional

[
  {
    "Compound String": "C=C1C(c2ccc(F)cc2)=C(CNC(=O)c2ccc(C)cc2)C(=O)N1CCCC",
    "Reported": "> 512 µg/mL"
  },
  {
    "Compound String": "C=C1OC(=O)C(CNC(=O)c2ccccc2OC)=C1c1ccc(F)cc1",
    "Reported": "> 512 µg/mL"
  },
  {
    "Compound String": "C=C1OC(=O)C(CNC(=O)c2cccc(Br)c2)=C1c1ccc(F)cc1",
    "Reported": "> 512 µg/mL"
  },
  {
    "Compound String": "C=C1OC(=O)C(CNC(=O)c2ccc(C)cc2)=C1c1ccccc1Br",
    "Reported": "> 512 µg/mL"
  },
  {
    "Compound String": "C=C1OC(=O)C(CNC(=O)c2ccc(C)cc2)=C1c1cccc(Br)c1",
    "Reported": "> 512 µg/mL"
  }
]

Give MIC for all compounds that follow.
1. C=C1C(c2ccc(F)cc2)=C(CNC(=O)c2ccc(C)cc2)C(=O)N1CCCCC
2. C=C1OC(=O)C(CNC(=O)c2ccc(Br)cc2)=C1c1ccc(F)cc1
3. C=C1OC(=O)C(CNC(=O)c2ccc(C)cc2)=C1c1ccccc1
4. C=C1OC(=O)C(CNC(=O)c2ccccc2Cl)=C1c1ccc(F)cc1
5. C=C1OC(=O)C(CNC(=O)c2ccc(C)cc2)=C1c1ccc(Cl)cc1
6. CC[C@H]1OC(=O)[C@H](C)[C@@H](O[C@H]2C[C@@](C)(OC)[C@@H](O)[C@H](C)O2)[C@H](C)[C@@H](O[C@@H]2O[C@H](C)C[C@H](N(C)C)[C@H]2O)[C@](C)(O)C[C@@H](C)CN(C)[C@H](C)[C@@H](O)[C@]1(C)O
7. C=C1C(c2ccc(F)cc2)=C(CNC(=O)c2ccc(C)cc2)C(=O)N1CC
8. C=C1OC(=O)C(CNC(=O)c2ccc(Cl)cc2)=C1c1ccc(F)cc1

> 512 µg/mL
> 512 µg/mL
> 512 µg/mL
> 512 µg/mL
> 512 µg/mL
16 µg/mL
64 µg/mL
> 512 µg/mL
